- TESTED SYSTEM: T1, recombinant monomeric SARS-CoV-2 S1 protein, his-tagged (SARS-CoV-2, UniProt P0DTC2 16-681)
- T1 construct: domain: S1
- EXPERIMENT NOTES: flow cytometry, blocking of binding to hACE-2 cells

BINDER | ENDPOINT UNIT | percent blocking
1035716 (antibody, V domains shown) VH: EVLLQQSGPELVKPGASVKIPCKASGYTFTDYNMDWVKQSHGKSLEWIGDINPNNGGTIYNQKFKGKATLTVDKSSSTAYMELRSLTSEDTAVYYCAREGYGNYFDYWGQGTTLTVSS VL: DILLTQSPAILSVSPGERVSFSCRASQSIGTSIHWYQQRTNGSPRLLIKYASESISGIPSRFSGSGSGTDYTLSINSVESEDIADYYCQQSYSWPTTFGAGTKLELK | % | 93.8
1035211 (antibody, V domains shown) VH: QVQLQQSGAELARPGASVKMSCKASGYTFTNYTMHWVKQRPGQGLEWIGYINPSSGYTNYNQKFKDKATLTADKSSSTAYMQLSSLTSEDSAVYYCARRNPLYAMDYWGQGTSVTVSS VL: DIKMTQSPSSMYASLGERVTITCKASQDINSYLNWFQQKPGKSPKTLIYRANRLVDGVPSRFSGSGSGQDYSLTISSLEFEDMGIYYCLQYDEFPYTFGGGTKLEIK | % | 88.7
1035755 (antibody, V domains shown) VH: EVQLQQSGAELVRPGALVKLSCKASGFNIKDYYMHWVKQRPEQGLEWIGWIDPENGNSIYDPKFQGKASITADTSSNTAYLQLSSLTSEDTAVYYCATPSATSYFDYWGQGTTLTVSS VL: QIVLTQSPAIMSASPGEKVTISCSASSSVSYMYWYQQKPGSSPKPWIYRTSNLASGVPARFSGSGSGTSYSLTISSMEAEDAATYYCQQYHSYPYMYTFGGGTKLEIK | % | 93.3
1035419 (antibody, V domains shown) VH: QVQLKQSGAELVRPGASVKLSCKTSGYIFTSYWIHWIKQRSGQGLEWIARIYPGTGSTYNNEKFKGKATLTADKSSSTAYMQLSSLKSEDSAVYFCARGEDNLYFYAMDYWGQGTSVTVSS VL: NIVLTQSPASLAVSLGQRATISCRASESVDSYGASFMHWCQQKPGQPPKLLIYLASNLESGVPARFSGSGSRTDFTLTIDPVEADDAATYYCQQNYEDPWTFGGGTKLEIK | % | 70.1
1035423 (antibody, V domains shown) VH: EVKLEESGGGLVQPGGSMKLSCTASGFTFSDAWMDWVRQSPEKGLEWVAEIRNKANNHATYYAESVKGRFTISRDDSKSSVYLQMNSLRAEDTGIYYCILFITYAMDYWGQGTSVTVSS VL: DIVLTQSQKFMSTSVGDRVSITCKASQNVRTAVAWYQQKPGQSPKALIYLASNRHTGVPDRFTGSGSGTDFTLTISNVQSEDLADYFCLQHWNYPLTFGSGTKLELK | % | 19.7
